Overview of reported kon across a group of binders:
Biological target: T1, G-CSF Receptor (G-CSFR) (R&D systems 381-GR-050/CF), recombinant human (human, UniProt Q99062 25-627, limits assumed)
T1 construct: Bought protein, amine-coupled to a CM5 chip; also called rhG-CSFR; human G-CSF receptor
T1 sequence (looked up): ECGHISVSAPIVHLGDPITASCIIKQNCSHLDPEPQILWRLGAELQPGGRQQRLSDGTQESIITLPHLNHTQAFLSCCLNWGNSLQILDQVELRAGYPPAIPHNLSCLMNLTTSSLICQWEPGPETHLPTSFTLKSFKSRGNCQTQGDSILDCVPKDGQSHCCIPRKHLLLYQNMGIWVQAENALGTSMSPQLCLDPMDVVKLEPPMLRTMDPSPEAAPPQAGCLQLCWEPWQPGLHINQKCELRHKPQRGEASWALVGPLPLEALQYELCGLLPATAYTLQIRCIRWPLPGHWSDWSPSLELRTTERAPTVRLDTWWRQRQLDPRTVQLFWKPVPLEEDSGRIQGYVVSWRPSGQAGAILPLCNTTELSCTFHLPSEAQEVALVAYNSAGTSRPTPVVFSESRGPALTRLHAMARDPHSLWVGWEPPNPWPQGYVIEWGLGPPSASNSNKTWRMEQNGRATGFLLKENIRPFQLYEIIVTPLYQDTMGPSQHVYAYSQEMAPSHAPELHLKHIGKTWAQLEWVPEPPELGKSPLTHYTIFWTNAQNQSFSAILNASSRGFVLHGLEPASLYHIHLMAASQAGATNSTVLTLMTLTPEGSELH
Assay: SPR, Biacore X100 single-cycle kinetics, G-CSFR amine-coupled on CM5, 1:1 binding model
# number then unit; no other words

// worked examples, kon included
rhG-CSF (recombinant human G-CSF; USP RS Filgrastim, Sigma-Aldrich 1270435) (ligand) TPLGPASSLPQSFLLKCLEQVRKIQGDGAALQEKLCATYKLCHPEELVLLGHSLGIPWAPLSSCPSQALQLAGCLSQLHSGLFLYQGLLQALEGISPELGPTLDTLQLDVADFATTIWQQMEELGMAPALQPTQGAMPAFASAFQRRAGGVLVASHLQSFLEVSYRVLRHLAQP | 300000 M⁻¹ s⁻¹
Disohair_2 (designed binder, Expressed with an N-terminal hexa-His-tag and thrombin site) MTSDYIIEQIQRKQEEARLKVEEQERKLEAVKEASKRGVSSDQLLNLILDLADIITTLIQIIEESNEAIKELIKNQ | 2100 M⁻¹ s⁻¹
Moevan (designed binder, also called Movean) MEAAAAARDESAYLKLQEQMRKIDADAAALSETRTIEELDTFKLDVADFVTTVVQLAEELEHRFGRNRRGRTEIYKIVKEVDRKLLDLTDAVLAKEKKGEDILNMVAEIKALLINIYK | 290000 M⁻¹ s⁻¹

Req: Give the measured kon of Moevan_t2 (designed binder, Tandem fusion of two Moevan copies joined by a 24 amino acid GS linker) EAAAAARDESAYLKLQEQMRKIDADAAALSETRTIEELDTFKLDVADFVTTVVQLAEELEHRFGRNRRGRTEIYKIVKEVDRKLLDLTDAVLAKEKKGEDILNMVAEIKALLINIYKGGGGSSGGGGSSGGGGSSGGGGSSEAAAAARDESAYLKLQEQMRKIDADAAALSETRTIEELDTFKLDVADFVTTVVQLAEELEHRFGRNRRGRTEIYKIVKEVDRKLLDLTDAVLAKEKKGEDILNMVAEIKALLINIYK .
Resp: 310000 M⁻¹ s⁻¹
